Data origin, for the record: patent EP4786492A1

Emax of OD450 nm binding value reference
# assay-target: T1, human DLL4 protein (human, UniProt Q9NR61 27-524, limits assumed)
# T1 construct: bought protein; construct and tag not described; also called hDLL4
# T1 sequence (Q9NR61 27-524 limits assumed): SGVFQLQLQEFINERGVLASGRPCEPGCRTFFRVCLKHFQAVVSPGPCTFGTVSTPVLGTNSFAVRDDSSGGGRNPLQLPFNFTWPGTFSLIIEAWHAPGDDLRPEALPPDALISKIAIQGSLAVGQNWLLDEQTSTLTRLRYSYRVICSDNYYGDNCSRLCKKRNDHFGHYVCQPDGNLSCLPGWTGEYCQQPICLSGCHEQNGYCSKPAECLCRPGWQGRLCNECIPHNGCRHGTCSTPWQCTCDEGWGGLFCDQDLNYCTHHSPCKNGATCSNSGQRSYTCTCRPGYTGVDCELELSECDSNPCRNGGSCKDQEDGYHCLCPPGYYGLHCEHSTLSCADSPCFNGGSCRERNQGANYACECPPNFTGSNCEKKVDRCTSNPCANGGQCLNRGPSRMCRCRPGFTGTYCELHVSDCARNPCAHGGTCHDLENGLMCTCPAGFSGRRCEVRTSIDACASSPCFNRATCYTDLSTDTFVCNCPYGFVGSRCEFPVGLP
# assay-details: ELISA, maximum over 0.1-100 nM
A number alone suffices; assume OD450.

Here are 2 binders together with their reported answers.
• mab011 scFv-hFc (Fc fusion, human-murine chimeric scFv-hFc, VL-linker-VH-human IgG1 Fc; not shown: linker; Fc fragment of human IgG1) scFv (part 1 of 2): DIVLTQSPATLSVTPGDSVSLSCRASQSISNNLHWYQQKSHESPRLLIKYASQSISGIPSRFSGSGSGTDFTLSINSVETEDFGMYFCQQSNSWPWTFGGGTKLEIK scFv (part 2 of 2): EVQLQQSGPELVKPGASVKISCKASGYTFTDYYMNWVKQSHGKSLEWIGDISPNYGGTNYNQKFKGKATLTVDKSSSTACMELRSLTSEDSAVYYCTRSFYYYGTGYDWYFDVWGTGTTVTVSS = 0.06
• mab003 scFv-hFc (Fc fusion, human-murine chimeric scFv-hFc, VL-linker-VH-human IgG1 Fc; not shown: linker; Fc fragment of human IgG1) scFv (part 1 of 2): DVQITQSPSYLAASPGETITINCRASKSISKYLAWYQEKPGKTNKLLIYSGSTLHSGIPSRFSGSGSGTDFTLTISSLEPEDFAIYYCQQHNEYPLTFGGGTKLELK scFv (part 2 of 2): QVQLQQSGTELMKPGASVKLSCKATGYTFTGNWIEWVKQRPGHGLEWIGEILPGTGSTQYNEKFKGKATFTADPSSNTAYMQLSSLTTEDSAIYYCARWGSTVVAYDYWGQGTTLTVSS = 0.05

Then there is this binder:
Look at this binder and give its reported Emax of OD450 nm binding value. mab008 scFv-hFc (Fc fusion, human-murine chimeric scFv-hFc, VL-linker-VH-human IgG1 Fc; not shown: linker; Fc fragment of human IgG1) scFv (part 1 of 2): DIVMTQSQKFMSTSVGDRVSITCKASQNVGTAVAWYQQKPGQSPKLLIFSASIRYTGVPDRFTGSGSGTDFTLTISNMQSEDLADYFCQQYSSSPYTFGGGTKLEIK scFv (part 2 of 2): EVQLQQSGPVLVKPGASVKMSCKASGYTFTDYYMNWVKRSHGKSLEWIGIINPYNGGTSYNQKFRGKATLTVDKSSNTAYMELNSLTSEDSAVYYCSRYDYDYDVEGAMDYWGQGTSVTVSS
0.08
